# credit: ChEMBL document CHEMBL3046832

Test system: SF-295
Assay: Cytotoxicity against Homo sapiens (human) SF295 cells after 48 hr by SRB assay
Format: functional
Settings: SF-295, 48 h
EXPERIMENTAL_ENDPOINT: GI50 (µM)
Please respond with the number in µM and leave the unit unwritten.

Check out these entries, answers already filled in.
| MOLECULE | TESTED_SYSTEM | GI50, µM |
| --- | --- | --- |
| O=C(NC1CCCCC1)NS(=O)(=O)c1ccc(-n2nc3c(c2-c2cccs2)Cc2ccccc2-3)cc1 | SF-295 | 34.9 |
| O=C(c1ccccc1)n1c(-c2ccccc2)cs/c1=N\S(=O)(=O)c1ccc(N2N=C3c4ccccc4CC3C2c2cccs2)cc1 (stereo not given) | SF-295 | 37.1 |
| NS(=O)(=O)c1ccc(-n2nc3c(c2-c2cccs2)Cc2ccccc2-3)cc1 | SF-295 | 13.8 |
| O=C1CS/C(=N\S(=O)(=O)c2ccc(N3N=C4c5ccccc5CC4C3c3cccs3)cc2)N1C(=O)c1ccccc1 (stereo not given) | SF-295 | 31.7 |

Turning now to a further molecule:
Recorded GI50 for O=S(=O)(NC(=S)Nc1ccccc1)c1ccc(N2N=C3c4ccccc4CC3C2c2cccs2)cc1 (stereo not given) with SF-295, please?
18.9
